This section presents compounds with their documented IC50 values.
target: Mitochondrial complex I; NADH oxidoreductase (Bos taurus, UniProt P25708+P52505); experiment: Inhibition of NADH-ubiquinone oxidoreductase assessed as NADH oxidase activity in bovine heart submitochondrial particles
Sequence (P25708 21-464 limits assumed, other chains not shown): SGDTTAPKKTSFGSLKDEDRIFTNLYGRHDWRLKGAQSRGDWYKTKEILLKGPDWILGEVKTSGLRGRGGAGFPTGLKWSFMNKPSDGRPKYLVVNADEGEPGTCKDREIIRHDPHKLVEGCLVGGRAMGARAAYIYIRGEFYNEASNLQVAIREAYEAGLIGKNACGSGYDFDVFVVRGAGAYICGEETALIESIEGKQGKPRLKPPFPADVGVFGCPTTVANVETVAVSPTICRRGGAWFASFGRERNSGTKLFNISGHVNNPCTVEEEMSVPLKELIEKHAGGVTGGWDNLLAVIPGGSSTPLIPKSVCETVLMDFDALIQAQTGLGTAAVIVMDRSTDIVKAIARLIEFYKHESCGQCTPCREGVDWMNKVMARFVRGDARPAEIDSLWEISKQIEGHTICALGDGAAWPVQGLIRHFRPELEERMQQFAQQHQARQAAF

| Compound | IC50 |
| --- | --- |
| CCCc1c(C/C=C(\C)C/C=C/C(C)(C)O)[nH]c(=O)c(C)c1O | 17.8 µM |

compound `C/C=C(\C)[C@H](O)[C@H](C)/C=C(C)/C=C/C/C(C)=C/Cc1nc(OC)c(OC)c(O)c1C` , IC50 observed: 0.005 µM

compound CCCc1c(C/C=C(\C)C/C=C/C(C)O)[nH]c(=O)c(C)c1O (centres undefined) , IC50 observed: > 26.5 µM

compound `CCCc1c(C/C=C(\C)C/C=C/C(C)(C)O)[nH]c(=O)c(C)c1OC(C)=O` , IC50 observed: > 22.4 µM

compound `CCCc1c(C/C=C(\C)C/C=C/C(C)C)[nH]c(=O)c(C)c1O` , IC50 observed: 0.461 µM

compound `CCCc1c(C/C=C(\C)C/C=C/C(C)C)[nH]c(=O)c(C)c1OC` , IC50 observed: 2.8 µM

====

target: Mitochondrial complex I; NADH oxidoreductase (Bos taurus, UniProt P25708+P52505); test: Inhibition of NADH-ubiquinone oxidoreductase assessed as NADH oxidase activity in bovine heart submitochondrial particles
Observation type: IC50 (µM)
Express the result in µM but write the number alone.

The following compounds have reported results that may help.
| Compound | Experimental system | Units of measure | IC50 |
| --- | --- | --- | --- |
| CCCc1c(C/C=C(\C)C/C=C/C(C)(C)C)[nH]c(=O)c(C)c1O | Mitochondrial complex I; NADH oxidoreductase (Bos taurus, UniProt P25708+P52505) | µM | 0.183 |
| CCCCC/C(C)=C/Cc1[nH]c(=O)c(C)c(O)c1CCC | Mitochondrial complex I; NADH oxidoreductase (Bos taurus, UniProt P25708+P52505) | µM | 1.01 |
| CC/C=C/C/C(C)=C/Cc1[nH]c(=O)c(C)c(O)c1CCC | Mitochondrial complex I; NADH oxidoreductase (Bos taurus, UniProt P25708+P52505) | µM | 3.52 |
| CCCc1c(CCC(C)CCCC(C)C)[nH]c(=O)c(C)c1O (stereo not drawn) | Mitochondrial complex I; NADH oxidoreductase (Bos taurus, UniProt P25708+P52505) | µM | 2.21 |
| CCCc1c(C/C=C(\C)C/C=C/C(C)(C)C)oc(=O)c(C)c1O | Mitochondrial complex I; NADH oxidoreductase (Bos taurus, UniProt P25708+P52505) | µM | 15.1 |

# next compound below
compound `CCCCC/C(C)=C/Cc1oc(=O)c(C)c(O)c1CCC` , IC50 observed: 8.55

====

molecular target: Mitochondrial complex I; NADH oxidoreductase (Bos taurus, UniProt P25708+P52505); assay: Inhibition of NADH-ubiquinone oxidoreductase assessed as NADH oxidase activity in bovine heart submitochondrial particles
Observation type: IC50

compound CCCC1(O)C(C/C=C(\C)C/C=C/C(C)C)=NC(=O)C(C)=C1O (stereo not drawn) [IROMYCIN E] , IC50 observed: > 25.3 µM

compound CCCc1c(C/C=C(\C)C/C=C/C(C)C)oc(=O)c(C)c1O [IROMYCIN AO] , IC50 observed: > 26.6 µM

compound CCCC1=C(C/C=C(\C)C/C=C/C(C)C)N=C(O)C(C)(O)C1=O (stereo not drawn) [IROMYCIN F] , IC50 observed: > 25.3 µM
